study.system: human KDR (human, UniProt P35968 20-1356)
Sequence (P35968 20-1356): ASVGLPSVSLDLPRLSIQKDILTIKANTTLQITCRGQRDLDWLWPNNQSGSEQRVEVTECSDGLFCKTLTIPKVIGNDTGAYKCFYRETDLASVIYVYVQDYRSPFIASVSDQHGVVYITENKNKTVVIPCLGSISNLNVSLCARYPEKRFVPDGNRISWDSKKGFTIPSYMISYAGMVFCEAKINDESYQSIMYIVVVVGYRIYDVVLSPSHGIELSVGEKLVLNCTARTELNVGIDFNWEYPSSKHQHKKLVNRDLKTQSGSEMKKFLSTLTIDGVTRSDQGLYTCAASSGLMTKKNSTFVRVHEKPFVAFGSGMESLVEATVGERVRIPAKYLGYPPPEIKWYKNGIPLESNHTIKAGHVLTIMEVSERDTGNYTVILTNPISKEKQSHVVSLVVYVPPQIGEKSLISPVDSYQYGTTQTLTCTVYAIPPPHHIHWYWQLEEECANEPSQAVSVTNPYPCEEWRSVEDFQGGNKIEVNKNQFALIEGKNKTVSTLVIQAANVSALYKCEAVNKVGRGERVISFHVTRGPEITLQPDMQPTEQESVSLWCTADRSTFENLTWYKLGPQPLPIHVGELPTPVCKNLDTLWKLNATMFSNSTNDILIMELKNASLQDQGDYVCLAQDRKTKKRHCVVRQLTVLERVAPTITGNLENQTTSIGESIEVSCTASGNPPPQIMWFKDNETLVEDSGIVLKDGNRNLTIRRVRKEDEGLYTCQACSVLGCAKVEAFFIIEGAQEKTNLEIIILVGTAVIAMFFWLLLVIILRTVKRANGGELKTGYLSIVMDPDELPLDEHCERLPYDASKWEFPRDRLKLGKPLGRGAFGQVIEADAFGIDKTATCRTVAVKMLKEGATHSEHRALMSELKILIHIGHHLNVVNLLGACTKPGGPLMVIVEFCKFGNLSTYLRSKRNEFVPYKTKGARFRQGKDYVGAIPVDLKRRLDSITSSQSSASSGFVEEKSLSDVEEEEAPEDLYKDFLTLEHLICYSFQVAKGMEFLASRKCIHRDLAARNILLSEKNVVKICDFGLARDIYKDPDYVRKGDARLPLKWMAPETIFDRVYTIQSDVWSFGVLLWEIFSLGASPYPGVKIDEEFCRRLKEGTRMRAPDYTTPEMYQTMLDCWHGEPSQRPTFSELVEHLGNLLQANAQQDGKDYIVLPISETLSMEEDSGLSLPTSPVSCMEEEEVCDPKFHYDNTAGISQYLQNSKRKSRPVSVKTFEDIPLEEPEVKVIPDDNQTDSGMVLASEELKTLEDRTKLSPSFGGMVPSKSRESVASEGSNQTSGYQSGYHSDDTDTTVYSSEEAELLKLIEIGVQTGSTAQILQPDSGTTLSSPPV
assay.procedure: cell-based or functional assay
measurement.type: 6-keto Prostaglandin F1α release, Maximum Inhibition (% Inhibition), N = 1 (200 nM) (%)
Numbers only; they are read as %.

Illustrative cases are given below, each with its answer.
32F4 (antibody, V domains shown, Fully human monoclonal antibody from a XenoMouse hybridoma (IgG2 or IgG4 strain), purified) VH: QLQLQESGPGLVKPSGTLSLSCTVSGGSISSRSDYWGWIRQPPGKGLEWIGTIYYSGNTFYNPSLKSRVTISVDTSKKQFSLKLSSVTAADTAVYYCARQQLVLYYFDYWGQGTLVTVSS VL: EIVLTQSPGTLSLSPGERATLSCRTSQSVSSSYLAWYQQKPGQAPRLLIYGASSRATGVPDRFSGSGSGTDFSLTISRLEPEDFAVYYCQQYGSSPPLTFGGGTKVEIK: 42
24B3 (antibody, V domains shown, Fully human monoclonal antibody from a XenoMouse hybridoma (IgG2 or IgG4 strain), purified) VH: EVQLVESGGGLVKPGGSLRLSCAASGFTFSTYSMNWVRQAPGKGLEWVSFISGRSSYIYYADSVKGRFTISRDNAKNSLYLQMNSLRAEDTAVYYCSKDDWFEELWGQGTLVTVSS VL: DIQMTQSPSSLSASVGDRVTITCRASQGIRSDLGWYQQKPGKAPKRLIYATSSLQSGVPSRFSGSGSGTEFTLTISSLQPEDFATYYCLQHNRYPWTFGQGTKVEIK: 37
32G7 (antibody, V domains shown, Fully human monoclonal antibody from a XenoMouse hybridoma (IgG2 or IgG4 strain), purified) VH: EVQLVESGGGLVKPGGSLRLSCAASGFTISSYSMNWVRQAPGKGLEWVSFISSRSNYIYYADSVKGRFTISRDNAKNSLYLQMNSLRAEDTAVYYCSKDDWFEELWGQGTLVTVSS VL: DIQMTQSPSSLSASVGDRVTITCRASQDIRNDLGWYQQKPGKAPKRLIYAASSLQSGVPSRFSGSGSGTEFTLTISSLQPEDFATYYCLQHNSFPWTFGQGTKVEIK: 28
27A3 (antibody, V domains shown, Fully human monoclonal antibody from a XenoMouse hybridoma (IgG2 or IgG4 strain), purified) VH: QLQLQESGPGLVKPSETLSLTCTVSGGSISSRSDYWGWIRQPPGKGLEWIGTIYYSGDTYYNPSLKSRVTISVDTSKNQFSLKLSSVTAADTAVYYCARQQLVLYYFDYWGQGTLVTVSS VL: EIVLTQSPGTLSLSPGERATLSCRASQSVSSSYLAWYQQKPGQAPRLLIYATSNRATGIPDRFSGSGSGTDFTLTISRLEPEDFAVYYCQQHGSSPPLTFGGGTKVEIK: 49
29H3 (antibody, V domains shown, Fully human monoclonal antibody from a XenoMouse hybridoma (IgG2 or IgG4 strain), purified) VH: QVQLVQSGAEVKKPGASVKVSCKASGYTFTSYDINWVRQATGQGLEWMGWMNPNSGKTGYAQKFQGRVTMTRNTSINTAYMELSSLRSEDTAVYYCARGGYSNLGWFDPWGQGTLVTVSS VL: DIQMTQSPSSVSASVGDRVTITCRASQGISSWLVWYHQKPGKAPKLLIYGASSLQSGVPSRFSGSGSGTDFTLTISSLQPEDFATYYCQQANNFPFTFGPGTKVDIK: 2

Inquiry: Find the recorded 6-keto Prostaglandin F1α release, Maximum Inhibition (% Inhibition), N = 1 (200 nM) belonging to 33E1 (antibody, V domains shown, Fully human monoclonal antibody from a XenoMouse hybridoma (IgG2 or IgG4 strain), purified) VH: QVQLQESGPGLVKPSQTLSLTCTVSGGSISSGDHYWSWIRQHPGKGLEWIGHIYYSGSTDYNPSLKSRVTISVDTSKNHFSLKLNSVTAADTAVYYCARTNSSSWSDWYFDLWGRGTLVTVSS VL: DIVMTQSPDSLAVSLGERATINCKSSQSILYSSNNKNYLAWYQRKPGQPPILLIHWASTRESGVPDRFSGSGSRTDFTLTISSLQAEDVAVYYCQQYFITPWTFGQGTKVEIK and report it.
Reply text: 77

Inquiry: Find the recorded 6-keto Prostaglandin F1α release, Maximum Inhibition (% Inhibition), N = 1 (200 nM) belonging to 22B8 (antibody, V domains shown, Fully human monoclonal antibody from a XenoMouse hybridoma (IgG2 or IgG4 strain), purified) VH: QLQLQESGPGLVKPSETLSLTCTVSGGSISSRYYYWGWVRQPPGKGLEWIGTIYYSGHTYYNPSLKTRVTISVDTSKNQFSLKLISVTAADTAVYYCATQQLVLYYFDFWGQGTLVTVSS VL: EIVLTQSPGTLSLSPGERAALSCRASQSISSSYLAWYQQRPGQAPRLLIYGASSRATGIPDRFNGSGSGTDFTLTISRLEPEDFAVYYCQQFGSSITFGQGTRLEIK and report it.
Reply text: 63
